Recorded melting temperature by entry
system: HeLa Kyoto; experiment: melting temperature (median over replicates), in situ; higher = more thermally stable; details: cell cycle stage: G1/S
Answer in °C, number only, no unit symbol.

Consider the following illustrative entries.
>>> readout_value("MPKRKAAGQGDMRQEPKRRSARLSAMLVPVTPEVKPKRTSSSRKMKTKSDMMEENIDTSAQAVAETKQEAVVEEDYNENAKNGEAKITEAPASEKEIVEVKEENIEDATEKGGEKKEAVAAEVKNEEEDQKEDEEDQNEEKGEAGKEDKDEKGEEDGKEDKNGNEKGEDAKEKEDGKKGEDGKGNGEDGKEKGEDEKEEEDRKETGDGKENEDGKEKGDKKEGKDVKVKEDEKEREDGKEDEGGNEEEAGKEKEDLKEEEEGKEEDEIKEDDGKKEEPQSIV [HMGN5]")
59.9
>>> readout_value("MLPLLRCVPRVLGSSVAGLRAAAPASPFRQLLQPAPRLCTRPFGLLSVRAGSERRPGLLRPRGPCACGCGCGSLHTDGDKAFVDFLSDEIKEERKIQKHKTLPKMSGGWELELNGTEAKLVRKVAGEKITVTFNINNSIPPTFDGEEEPSQGQKVEEQEPELTSTPNFVVEVIKNDDGKKALVLDCHYPEDEVGQEDEAESDIFSIREVSFQSTGESEWKDTNYTLNTDSLDWALYDHLMDFLADRGVDNTFADELVELSTALEHQEYITFLEDLKSFVKSQ [C1QBP]")
52.6

Fill in: melting temperature of MLYLIGLGLGDAKDITVKGLEVVRRCSRVYLEAYTSVLTVGKEALEEFYGRKLVVADREEVEQEADNILKDADISDVAFLVVGDPFGATTHSDLVLRATKLGIPYRVIHNASIMNAVGCCGLQLYKFGETVSIVFWTDTWRPESFFDKVKKNRQNGMHTLCLLDIKVKEQSLENLIKGRKIYEPPRYMSVNQAAQQLLEIVQNQRIRGEEPAVTEETLCVGLARVGADDQKIAAGTLRQMCTVDLGEPLHSLIITGGSIHPMEMEMLSLFSIPENSSESQSINGL [DPH5] is ___
54.6

Fill in: melting temperature of MVAYWRQAGLSYIRYSQICAKAVRDALKTEFKANAEKTSGSNVKIVKVKKE [ATP5E] is ___
53.2

Fill in: melting temperature of MAGIPGLLFLLFFLLCAVGQVSPYSAPWKPTWPAYRLPVVLPQSTLNLAKPDFGAEAKLEVSSSCGPQCHKGTPLPTYEEAKQYLSYETLYANGSRTETQVGIYILSSSGDGAQHRDSGSSGKSRRKRQIYGYDSRFSIFGKDFLLNYPFSTSVKLSTGCTGTLVAEKHVLTAAHCIHDGKTYVKGTQKLRVGFLKPKFKDGGRGANDSTSAMPEQMKFQWIRVKRTHVPKGWIKGNANDIGMDYDYALLELKKPHKRKFMKIGVSPPAKQLPGGRIHFSGYDNDRPGNLVYRFCDVKDETYDLLYQQCDAQPGASGSGVYVRMWKRQQQKWERKIIGIFSGHQWVDMNGSPQDFNVAVRITPLKYAQICYWIKGNYLDCREG [PRSS23] is ___
53.2

Fill in: melting temperature of MEGGFGSDFGGSGSGKLDPGLIMEQVKVQIAVANAQELLQRMTDKCFRKCIGKPGGSLDNSEQKCIAMCMDRYMDAWNTVSRAYNSRLQRERANM [TIMM13] is ___
53.8

----------
Recorded melting temperature by entry
tested on: HeLa Kyoto; assay: melting temperature (median over replicates), in situ; higher = more thermally stable; conditions: cell cycle stage: mitosis
Answer in °C, number only, no unit symbol.

>>> readout_value("MGPLPRTVELFYDVLSPYSWLGFEILCRYQNIWNINLQLRPSLITGIMKDSGNKPPGLLPRKGLYMANDLKLLRHHLQIPIHFPKDFLSVMLEKGSLSAMRFLTAVNLEHPEMLEKASRELWMRVWSRNEDITEPQSILAAAEKAGMSAEQAQGLLEKIATPKVKNQLKETTEAACRYGAFGLPITVAHVDGQTHMLFGSDRMELLAHLLGEKWMGPIPPAVNARL [GSTK1]")
52

Let us examine a further case.
Fill in: melting temperature of MVQLRPRASRAPASAEAMVDEGQLASEEEEAEHGLLLGQPSSGAAAEPLEEDEEGDDEFDDEAPEELTFASAQAEAREEERRVRETVRRDKTLLKEKRKRREELFIEQKKRKLLPDTILEKLTTASQTNIKKSPGKVKEVNLQKKNEDCEKGNDSKKVKVQKVQSVSQNKSYLAVRLKDQDLRDSRQQAAQAFIHNSLYGPGTNRTTVNKFLSLANKRLPVKRAAVQFLNNAWGIQKKQNAKRFKRRWMVRKMKTKK [NOL7] is ___
54

----------
tested on: HeLa Kyoto; test: melting temperature (median over replicates), in situ; higher = more thermally stable; conditions: cell cycle stage: G1/S
Recorded melting temperature by entry
Answer in °C, number only, no unit symbol.

>>> readout_value("MPMFIVNTNVPRASVPDGFLSELTQQLAQATGKPPQYIAVHVVPDQLMAFGGSSEPCALCSLHSIGKIGGAQNRSYSKLLCGLLAERLRISPDRVYINYYDMNAANVGWNNSTFA [MIF]")
53.5
>>> readout_value("MSGQRVDVKVVMLGKEYVGKTSLVERYVHDRFLVGPYQNTIGAAFVAKVMSVGDRTVTLGIWDTAGSERYEAMSRIYYRGAKAAIVCYDLTDSSSFERAKFWVKELRSLEEGCQIYLCGTKSDLLEEDRRRRRVDFHDVQDYADNIKAQLFETSSKTGQSVDELFQKVAEDYVSVAAFQVMTEDKGVDLGQKPNPYFYSCCHH [RAB24]")
53.8

Let us examine a further case.
Fill in: melting temperature of MFSFNMFDHPIPRVFQNRFSTQYRCFSVSMLAGPNDRSDVEKGGKIIMPPSALDQLSRLNITYPMLFKLTNKNSDRMTHCGVLEFVADEGICYLPHWMMQNLLLEEGGLVQVESVNLQVATYSKFQPQSPDFLDITNPKAVLENALRNFACLTTGDVIAINYNEKIYELRVMETKPDKAVSIIECDMNVDFDAPLGYKEPERQVQHEESTEGEADHSGYAGELGFRAFSGSGNRLDGKKKGVEPSPSPIKPGDIKRGIPNYEFKLGKITFIRNSRPLVKKVEEDEAGGRFVAFSGEGQSLRKKGRKP [UFD1L] is ___
54.2

----------
test system: HeLa Kyoto; assay: melting temperature (median over replicates), in situ; higher = more thermally stable; conditions: cell cycle stage: mitosis;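 also: HeLa Kyoto cells synchronized by double thymidine or nocodazole block, proteins quantified by TMT10plex mass spectrometry, three independent biological replicates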
Recorded melting temperature by entry
Answer in °C, number only, no unit symbol.

Consider the following illustrative entries.
>>> readout_value("MSDLEDDETPQLSAHALAALQEFYAEQKQQIEPGEDDKYNIGIIEENWQLSQFWYSQETALQLAQEAIAAVGEGGRIACVSAPSVYQKLRELCRENFSIYIFEYDKRFAMYGEEFIFYDYNNPLDLPERIAAHSFDIVIADPPYLSEECLRKTSETVKYLTRGKILLCTGAIMEEQAAELLGVKMCTFVPRHTRNLANEFRCYVNYDSGLDCGI [N6AMT2]")
50.6
>>> readout_value("MEALPLLAATTPDHGRHRRLLLLPLLLFLLPAGAVQGWETEERPRTREEECHFYAGGQVYPGEASRVSVADHSLHLSKAKISKPAPYWEGTAVIDGEFKELKLTDYRGKYLVFFFYPLDFTFVCPTEIIAFGDRLEEFRSINTEVVACSVDSQFTHLAWINTPRRQGGLGPIRIPLLSDLTHQISKDYGVYLEDSGHTLRGLFIIDDKGILRQITLNDLPVGRSVDETLRLVQAFQYTDKHGEVCPAGWKPGSETIIPDPAGKLKYFDKLN [PRDX4]")
62.8
>>> readout_value("MPVKKKRKSPGVAAAVAEDGGLKKCKISSYCRSQPPARLISGEEHFSSKKCLAWFYEYAGPDEVVGPEGMEKFCEDIGVEPENIIMLVLAWKLEAESMGFFTKEEWLKGMTSLQCDCTEKLQNKFDFLRSQLNDISSFKNIYRYAFDFARDKDQRSLDIDTAKSMLALLLGRTWPLFSVFYQYLEQSKYRVMNKDQWYNVLEFSRTVHADLSNYDEDGAWPVLLDEFVEWQKVRQTS [DCUN1D5]")
47.5

Which melting temperature is reported with HeLa Kyoto for this entry: MAERQEEQRGSPPLRAEGKADAEVKLILYHWTHSFSSQKVRLVIAEKALKCEEHDVSLPLSEHNEPWFMRLNSTGEVPVLIHGENIICEATQIIDYLEQTFLDERTPRLMPDKESMYYPRVQHYRELLDSLPMDAYTHGCILHPELTVDSMIPAYATTRIRSQIGNTESELKKLAEENPDLQEAYIAKQKRLKSKLLDHDNVKYLKKILDELEKVLDQVETELQRRNEETPEEGQQPWLCGESFTLADVSLAVTLHRLKFLGFARRNWGNGKRPNLETYYERVLKRKTFNKVLGHVNNILISAVLPTAFRVAKKRAPKVLGTTLVVGLLAGVGYFAFMLFRKRLGSMILAFRPRPNYF [GDAP1] ?
52

Which melting temperature is reported with HeLa Kyoto for this entry: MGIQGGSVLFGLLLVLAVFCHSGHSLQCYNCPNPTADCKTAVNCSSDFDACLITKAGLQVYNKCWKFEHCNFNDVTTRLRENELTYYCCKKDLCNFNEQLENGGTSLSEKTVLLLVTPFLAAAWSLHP [CD59] ?
64.9

Which melting temperature is reported with HeLa Kyoto for this entry: MGKGCKVVVCGLLSVGKTAILEQLLYGNHTIGMEDCETMEDVYMASVETDRGVKEQLHLYDTRGLQEGVELPKHYFSFADGFVLVYSVNNLESFQRVELLKKEIDKFKDKKEVAIVVLGNKIDLSEQRQVDAEVAQQWAKSEKVRLWEVTVTDRKTLIEPFTLLASKLSQPQSKSSFPLPGRKNKGNSNSEN [NKIRAS1] ?
48.6

Data origin: the supplement of paper PMC5998384
